FYI, the data here is from the supplement of paper PMC9170038.

System: K4 kissing-loop RNA reporter;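 also: bound reporter read as fluorescence of individual clusters on recovered sequencing chips by microscopy, with normalized cluster intensities fitted with a binding model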
run.description: apparent KD of K4 kissing-loop reporter; higher = weaker reporter binding
experimental.context: Eterna round: R107; input ligand: tryptophan 2.4 mM
quantity.measured: apparent KD of K4 kissing-loop reporter (nM)
Give the value in nM but do not write nM after it.

Examples with their reported apparent KD of K4 kissing-loop reporter follow.
residue.string: AUGGUAUUGCGAGGAUAUCCUUCCCACGUCGAAGUACCGUGCUUGAUGGAGUGAUGUUCGAUCAGAGGAGAAGGCGCGGUGUUAU [Same State FMN B GF22]
scale.unit: nM
apparent KD of K4 kissing-loop reporter: 639

residue.string: CGCUGGGCGAGUGAUGUUCGCUCACGUGAUACCAGUGCCAUCCAACACCCUUGGCAGCACGCGGGCAGUGAUGUUGUCCUUAGUG [Exclusion Theophylline A GF8]
scale.unit: nM
apparent KD of K4 kissing-loop reporter: 116

residue.string: AAAGAUCUUCUAGAAACUAGAAGAUCAAGAGAGGAUAUCCGAAUUCGGAGAAGGCUCACUAAGUGAUGUUUGGAGGGAAUCCCAA [AK1 SS FMN A]
scale.unit: nM
apparent KD of K4 kissing-loop reporter: 1360

residue.string: AGUGACGAGUGAUGUUCGUGAACACUGGAUACCAGCAGUCUUAUCUGCCCUUGGCAGCCAACGGGAACCGAAUGUUAAGACCUGU [theeternabot_exclusion_KL_Theo_A_4]
scale.unit: nM
apparent KD of K4 kissing-loop reporter: 121

residue.string: UGAUUGGCGAAAGUAGUGAUGUUACGAAUAUAGGAUAUUAGAGGAAUAAGAAGGAUAAAUGAGAAAUAGGUAAAUUGUUGGUUGG [FMN same state]
scale.unit: nM
apparent KD of K4 kissing-loop reporter: 94.5

Next sequence, please.
Would you mind telling me what apparent KD of K4 kissing-loop reporter value was observed for GCGAAAAGCAAAACGAGUGAUGUUCGAAAACGAGGACCGGUACGGCCGCCACUCGAAAACGUCUGCGUGGGAAACUAUGUAGAUG [SS Tryptophan A - 1] ? 302
